Target: T1, α-parvin-CHC (C-terminal calponin homology domain fragment of human α-parvin, residues 242-372) (human, UniProt Q9NVD7 242-372)
T1 construct: α-parvin, human, residues 242-372: the entire C-terminal CH domain and a portion of the inter-CH domain linker; Expressed from pGEX-6P1 (BamHI/EcoRI); also called type-5 CH domain of α-parvin; actopaxin; source: E. coli BL21, GST fusion, purified (glutathione sepharose, 3C-protease cleavage, Superdex 75); 15N-enriched for NMR
T1 sequence (looked up): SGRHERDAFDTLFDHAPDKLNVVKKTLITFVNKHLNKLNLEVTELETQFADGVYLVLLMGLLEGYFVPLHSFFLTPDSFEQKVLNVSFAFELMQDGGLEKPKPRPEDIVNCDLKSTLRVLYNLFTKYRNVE
Assay: NMR titration; 1H-15N HSQC of 235 μM 15N-enriched α-parvin-CHC titrated with LD peptide; 50 mM sodium phosphate, 100 mM NaCl, 2 mM DTT, 5% D2O, pH 6.9, 25°C; global fit to a single-site model
Conditions: both partners purified
RESULT_TYPE: pKd
Numbers only, as −log10 of the molar value.

BINDER | pKd
ATRELDELMASLSDFKFMAQ (paxillin, human, LD4 motif, residues 262-281; source: synthetic peptide, bought: Severn Biotech) [paxillin LD4 peptide (human paxillin residues 262-281)] | 3.85
VRPSVESLLDELESSVPSPV (paxillin, human, LD3 motif, residues 213-232; source: synthetic peptide, bought: Severn Biotech) [paxillin LD3 peptide (human paxillin residues 213-232)] | 2.64
MDDLDALLADLESTTSHISK (paxillin, human, LD1 motif, residues 1-20; source: synthetic peptide, bought: Severn Biotech) [paxillin LD1 peptide (human paxillin residues 1-20)] | 4.02

// NLSELDRLLLELNAVQHNPP (paxillin, human, LD2 motif, residues 141-160; source: synthetic peptide, bought: Severn Biotech) [paxillin LD2 peptide (human paxillin residues 141-160)] : pKd value = 3.69
